Molecular target: FLT1 (VEGFR1) (Homo sapiens (Human))
Sequence (P17948 27-1338): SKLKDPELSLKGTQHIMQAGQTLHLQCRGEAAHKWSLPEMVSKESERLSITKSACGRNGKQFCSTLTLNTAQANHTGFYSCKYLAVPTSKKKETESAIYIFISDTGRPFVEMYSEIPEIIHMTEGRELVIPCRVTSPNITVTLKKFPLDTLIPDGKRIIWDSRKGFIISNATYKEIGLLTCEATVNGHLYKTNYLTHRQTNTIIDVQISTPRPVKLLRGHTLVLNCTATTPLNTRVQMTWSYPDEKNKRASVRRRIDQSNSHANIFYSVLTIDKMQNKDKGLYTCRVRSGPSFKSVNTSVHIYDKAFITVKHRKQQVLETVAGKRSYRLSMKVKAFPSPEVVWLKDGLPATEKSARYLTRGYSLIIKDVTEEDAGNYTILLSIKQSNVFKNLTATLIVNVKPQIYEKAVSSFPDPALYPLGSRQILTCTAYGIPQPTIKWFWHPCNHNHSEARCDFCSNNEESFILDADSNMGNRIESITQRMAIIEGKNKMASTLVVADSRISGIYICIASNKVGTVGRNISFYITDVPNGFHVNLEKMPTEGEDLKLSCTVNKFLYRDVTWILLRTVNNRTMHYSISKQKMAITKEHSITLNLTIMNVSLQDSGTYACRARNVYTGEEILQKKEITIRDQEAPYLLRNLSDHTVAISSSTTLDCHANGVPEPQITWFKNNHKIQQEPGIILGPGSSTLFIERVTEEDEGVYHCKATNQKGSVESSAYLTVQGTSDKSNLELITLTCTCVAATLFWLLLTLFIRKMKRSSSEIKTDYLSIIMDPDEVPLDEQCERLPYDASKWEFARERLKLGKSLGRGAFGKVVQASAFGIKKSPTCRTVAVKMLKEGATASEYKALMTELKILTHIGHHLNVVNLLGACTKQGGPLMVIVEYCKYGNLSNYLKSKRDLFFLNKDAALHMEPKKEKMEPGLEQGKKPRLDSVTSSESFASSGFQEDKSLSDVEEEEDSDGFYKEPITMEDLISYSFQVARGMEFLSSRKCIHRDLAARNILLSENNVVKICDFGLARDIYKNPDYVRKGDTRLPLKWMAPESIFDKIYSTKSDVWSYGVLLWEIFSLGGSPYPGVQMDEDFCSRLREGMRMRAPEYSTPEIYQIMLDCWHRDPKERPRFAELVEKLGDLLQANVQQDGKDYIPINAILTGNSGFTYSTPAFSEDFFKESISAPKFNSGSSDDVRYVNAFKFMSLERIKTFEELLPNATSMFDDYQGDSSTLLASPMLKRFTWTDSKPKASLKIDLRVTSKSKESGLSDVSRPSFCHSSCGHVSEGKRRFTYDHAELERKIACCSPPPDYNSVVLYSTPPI
Assay: Kinase inhibition, Mobility Shift Assay (VEGFR1)
Assay type: biochemical
Recorded IC50 values for a group of compounds are listed next.

[
  {
    "input_smiles": "CNC(=O)c1ccccc1Sc1ccc2c(/C=C/c3cnn(CCN4CCCC4)c3)n[nH]c2c1",
    "IC50": "1 to 10 nM"
  },
  {
    "input_smiles": "CNC(=O)c1ccccc1Sc1ccc2c(/C=C/c3ccn(CCN4CCCC4)n3)n[nH]c2c1",
    "IC50": "1 to 10 nM"
  },
  {
    "input_smiles": "CNC(=O)c1ccccc1Sc1ccc2c(C#Cc3ccc(OCCN4CCCC4)cn3)n[nH]c2c1",
    "IC50": "1 to 10 nM"
  },
  {
    "input_smiles": "O=C(NC1CC1)c1cc(F)ccc1Sc1ccc2c(/C=C/c3cc(CCCN4CCCC4)ccn3)n[nH]c2c1",
    "IC50": "1 to 10 nM"
  }
]

###

Catalogue of IC50 readings, one per entry.
Molecular target: KDR (VEGFR2) (Homo sapiens (Human), UniProt P35968)
Sequence (P35968 790-1356): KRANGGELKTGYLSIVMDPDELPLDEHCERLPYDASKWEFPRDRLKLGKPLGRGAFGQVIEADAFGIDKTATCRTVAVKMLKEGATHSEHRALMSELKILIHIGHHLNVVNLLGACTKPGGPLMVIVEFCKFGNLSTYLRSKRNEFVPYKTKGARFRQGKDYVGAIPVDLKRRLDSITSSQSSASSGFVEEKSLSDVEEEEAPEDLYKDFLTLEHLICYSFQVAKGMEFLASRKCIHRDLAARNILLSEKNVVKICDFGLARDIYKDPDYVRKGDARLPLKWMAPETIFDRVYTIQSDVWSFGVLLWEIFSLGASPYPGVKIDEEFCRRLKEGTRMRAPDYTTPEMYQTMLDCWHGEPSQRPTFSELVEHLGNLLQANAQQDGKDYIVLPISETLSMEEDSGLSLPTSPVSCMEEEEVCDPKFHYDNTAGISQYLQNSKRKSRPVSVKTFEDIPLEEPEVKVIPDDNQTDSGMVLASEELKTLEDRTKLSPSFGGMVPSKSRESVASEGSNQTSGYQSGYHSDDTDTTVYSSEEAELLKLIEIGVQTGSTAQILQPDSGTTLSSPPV
Assay: Kinase inhibition, Mobility Shift Assay (VEGFR2)
Assay type: biochemical

[
  {
    "compound": "CNC(=O)c1cc(F)ccc1Sc1ccc2c(/C=C/c3ccc(OCCN4CCCC4)cn3)n[nH]c2c1",
    "study_target": "KDR (VEGFR2) (Homo sapiens (Human), UniProt P35968)",
    "IC50": "1 to 10 nM"
  },
  {
    "compound": "CNC(=O)c1ccccc1Sc1ccc2c(/C=C/c3ccn(CCCN4CCCC4)n3)n[nH]c2c1",
    "study_target": "KDR (VEGFR2) (Homo sapiens (Human), UniProt P35968)",
    "IC50": "1 to 10 nM"
  },
  {
    "compound": "CNC(=O)c1ccccc1Sc1ccc2c(/C=C/c3ccc(OCCN4CCOCC4)cn3)n[nH]c2c1",
    "study_target": "KDR (VEGFR2) (Homo sapiens (Human), UniProt P35968)",
    "IC50": "≤ 1 nM"
  },
  {
    "compound": "CNC(=O)c1ccccc1Sc1ccc2c(/C=C/c3ccc(OC[C@@H]4CCN(C)C4)cn3)n[nH]c2c1",
    "study_target": "KDR (VEGFR2) (Homo sapiens (Human), UniProt P35968)",
    "IC50": "≤ 1 nM"
  },
  {
    "compound": "O=C(NC1CC1)c1cc(F)ccc1Sc1ccc2c(/C=C/c3cnn(CCCN4CCCC4)c3)n[nH]c2c1",
    "study_target": "KDR (VEGFR2) (Homo sapiens (Human), UniProt P35968)",
    "IC50": "≤ 1 nM"
  },
  {
    "compound": "CCNC(=O)c1cc(F)ccc1Sc1ccc2c(/C=C/c3ccc(CN4CCCC4)cn3)n[nH]c2c1",
    "study_target": "KDR (VEGFR2) (Homo sapiens (Human), UniProt P35968)",
    "IC50": "1 to 10 nM"
  },
  {
    "compound": "O=C(NC1CC1)c1cccc(F)c1Sc1ccc2c(/C=C/c3cc(OCCN4CCCC4)ccn3)n[nH]c2c1",
    "study_target": "KDR (VEGFR2) (Homo sapiens (Human), UniProt P35968)",
    "IC50": "10 to 100 nM"
  },
  {
    "compound": "CCN(CC)Cc1ccc(/C=C/c2n[nH]c3cc(Sc4ccccc4C(=O)NC)ccc23)nc1",
    "study_target": "KDR (VEGFR2) (Homo sapiens (Human), UniProt P35968)",
    "IC50": "1 to 10 nM"
  },
  {
    "compound": "CNC(=O)c1ccccc1Sc1ccc2c(/C=C/c3ccc(OC[C@H]4CCN(C)C4)cn3)n[nH]c2c1",
    "study_target": "KDR (VEGFR2) (Homo sapiens (Human), UniProt P35968)",
    "IC50": "≤ 1 nM"
  },
  {
    "compound": "CNC(=O)c1ccccc1Sc1ccc2c(/C=C/c3cc(OCCN4CCCC4)ccn3)n[nH]c2c1",
    "study_target": "KDR (VEGFR2) (Homo sapiens (Human), UniProt P35968)",
    "IC50": "10 to 100 nM"
  },
  {
    "compound": "CNC(=O)c1ccccc1Sc1ccc2c(/C=C/c3ccc(OCC4CCCN4C)cn3)n[nH]c2c1 (stereo not drawn)",
    "study_target": "KDR (VEGFR2) (Homo sapiens (Human), UniProt P35968)",
    "IC50": "≤ 1 nM"
  },
  {
    "compound": "CCN(CC)Cc1ccc(/C=C/c2n[nH]c3cc(Sc4c(F)cccc4C(=O)NC)ccc23)nc1",
    "study_target": "KDR (VEGFR2) (Homo sapiens (Human), UniProt P35968)",
    "IC50": "1 to 10 nM"
  },
  {
    "compound": "CCN(CC)Cc1ccc(/C=C/c2n[nH]c3cc(Sc4ccccc4C(=O)NC4CC4)ccc23)nc1",
    "study_target": "KDR (VEGFR2) (Homo sapiens (Human), UniProt P35968)",
    "IC50": "≤ 1 nM"
  },
  {
    "compound": "O=C(NC1CC1)c1ccccc1Sc1ccc2c(/C=C/c3cnn(CCN4CCCC4)c3)n[nH]c2c1",
    "study_target": "KDR (VEGFR2) (Homo sapiens (Human), UniProt P35968)",
    "IC50": "1 to 10 nM"
  },
  {
    "compound": "O=C(NC1CC1)c1ccccc1Sc1ccc2c(/C=C/c3ccc(CCN4CCCC4)cn3)n[nH]c2c1",
    "study_target": "KDR (VEGFR2) (Homo sapiens (Human), UniProt P35968)",
    "IC50": "≤ 1 nM"
  }
]

Measured values drawn from patent US20260049071A1 for this set.
